Below, each entry is listed with its recorded viscosity.
- condition description: 303.15 K; 100 kPa; Liquid; Capillary tube (Ostwald / Ubbelohde) method
Numbers after ± are expanded uncertainties.

Here is how some compounds turned out for viscosity.
| compound | result |
| --- | --- |
| O=C1CCCCO1 [1-oxacyclohexan-2-one] | 2.98 ± 0.12 mPa·s |
| O=C1CCCCCO1 [6-hexanolactone] | 5.04 ± 0.2 mPa·s |
| CC1CCC(=O)O1 (centres undefined) [γ-valerolactone] | 1.67 ± 0.07 mPa·s |

Turning now to a further record.
Prompt line: Sample CC1CC(=O)O1 (centres undefined) [4-methyl-2-oxetanone] — what was its viscosity?
Response line: 1.48 ± 0.06 mPa·s
